# Tested on: SK-MEL-5
# Assay Text: NCI tumour cell line growth inhibition, 48 h
The source made the active and inactive calls. Cut-off read from the data, not from the text of the source: active = GI50 up to about 1.1 µM and inactive = higher.
Classes used: True (active), False (inactive)

{"Query Smiles": "Cc1cc(NCCCCCCCCNc2cc(C)nc3cc(N)ccc23)c2ccc(N)cc2n1", "Assigned Class": "False"}
{"Query Smiles": "CCc1n[nH]c(=O)n1CCO", "Assigned Class": "False"}
{"Query Smiles": "CC(C)Oc1cccc(N2C(NCc3c[nH]c4ccccc34)=Nc3ccncc3S2(=O)=O)c1", "Assigned Class": "False"}
{"Query Smiles": "Oc1ccc(/C=C/c2cccc(/C=C/c3ccc(O)c(O)c3)n2)cc1O", "Assigned Class": "False"}
{"Query Smiles": "CC(C)C[C@H](NC(=O)[C@H](Cc1ccc(F)cc1)NC(=O)c1ccccn1)B(O)O", "Assigned Class": "True"}

* * *

# System: RXF 393
# Assay Text: NCI tumour cell line growth inhibition, 48 h
Calls of active or inactive are those of the source. Rule as the data show it: active = GI50 up to about 1.1 µM and inactive = higher. Where a SMILES comes first, the peptide text is derived from it. [ ]: non-standard residue; d: D form. The star is where a group is joined. NMeAc5c = CNC1(C(=O)O)CCCC1; Boc = CC(C)(C)OC(=O)*; OBn = c1ccc(CO*)cc1
Value Kind: GI50

{"Compound": "CNNC1=NS(=O)(=O)c2cc(C(=O)OC)c(Cl)cc2S1", "Data Value": "> 10 µM (inactive)"}
{"Compound": "Cc1ccc(S(=O)(=O)C2=C([Si](C)(C)C)C3CC2[C@@H]2C4C=CC(CC4)[C@H]32)cc1 (stereo not given in full)", "Data Value": "33.5 µM (inactive)"}
{"Compound": "Cc1ccc(S(=O)(=O)NC(C)C(=O)O)cc1 (stereo not given)", "Data Value": "> 100 µM (inactive)"}
{"Compound": "CC(=O)Oc1c(-c2ccccc2)oc2ccccc12", "Data Value": "1.42 µM (inactive)"}
{"Compound": "Oc1ccc(/C=C/c2cc(O)cc(O)c2)cc1 [RESVERATROL]", "Data Value": "40.9 µM (inactive)"}
{"Compound": "COC(=O)/C=C(\\C)CC(O)/C=C(\\C)CCC=C(C)C (stereo not given)", "Data Value": "31.7 µM (inactive)"}
{"Compound": "CC(=O)/C=C1\\Nc2ccccc2N\\C1=C/C(C)=O", "Data Value": "19.1 µM (inactive)"}
{"Compound": "C=CC1(c2ccc(Br)cc2)OCCCO1", "Data Value": "> 100 µM (inactive)"}
{"Compound": "CCC1(C)C=Cc2c(cc(O)c3c(=O)c4ccccc4n(C)c23)O1 (stereo not given)", "Data Value": "> 10 µM (inactive)"}
{"Compound": "CN(C(=O)C(Cc1ccccc1)NC(=O)OC(C)(C)C)C1(C(=O)NC(Cc2ccccc2)C(=O)OCc2ccccc2)CCCC1 (stereo not drawn) (Boc-Phe-[NMeAc5c]-Phe-OBn; configuration not given here)", "Data Value": "44.7 µM (inactive)"}

* * *

# Test system: TK-10
# Assay Text: NCI tumour cell line growth inhibition, 48 h
Calls of active or inactive are those of the source. Cut-off read from the data, not from the text of the source: active = GI50 up to about 1.1 µM and inactive = higher.
Classes used: label 1 = active, label 0 = inactive

{"Compound": "Cc1ccc(S(=O)(=O)N2c3ccccc3[C@H]3CCC=C[C@H]32)cc1", "Assigned Class": "label 0"}
{"Compound": "Cc1nc(-c2ccccc2)c(-c2ccccc2)s1", "Assigned Class": "label 0"}
{"Compound": "CC(=O)Nc1ccc(S(=O)(=O)c2nnc(NC(C)=O)s2)cc1", "Assigned Class": "label 0"}
{"Compound": "COc1ccc(C(=O)Cc2ccc(Br)cc2)cc1OC", "Assigned Class": "label 0"}
{"Compound": "c1ccc(Cn2c(-c3ccc(-c4ccccc4)cc3)cc3ccccc32)cc1", "Assigned Class": "label 0"}
{"Compound": "Cc1cc(O)c(C(=O)O)c2c1C(=O)c1c(O)c(OCC(O)C(O)C(O)C(O)CO)c(O)c(O)c1C2=O.NCCNCCO (stereo unspecified)", "Assigned Class": "label 0"}
{"Compound": "CC1C(=O)OC2CC[N+]3([O-])CC=C(COC(=O)C(C)(O)C1(C)O)C23 (stereo unspecified)", "Assigned Class": "label 0"}
{"Compound": "COc1ccc2nc3c(C(=O)NCCN(C)C)cccc3nc2c1", "Assigned Class": "label 0"}
{"Compound": "Nc1nc(-c2ccccc2)nc2oc(-c3cccs3)nc12", "Assigned Class": "label 0"}
{"Compound": "CCc1nc2c(O)ccc(O)c2nc1C", "Assigned Class": "label 0"}
{"Compound": "CC1(C)CCCC(C)(C2CCC3(C)C2C(O)CC2C4(C)CCC(O)C(C)(C)C4CCC23C)O1 (stereo unspecified)", "Assigned Class": "label 0"}
{"Compound": "O=C(/C=C/c1ccsc1)c1ccc(Cl)s1", "Assigned Class": "label 0"}
{"Compound": "O=C(CC(C(=O)c1cccs1)c1ccccc1)c1ccccc1O (stereo unspecified)", "Assigned Class": "label 0"}
{"Compound": "N/N=c1\\[nH]c2ccccc2o1", "Assigned Class": "label 0"}
{"Compound": "CN(C)c1ccc(/N=C2/C=CC(=C(C#N)C#N)c3ccccc32)cc1", "Assigned Class": "label 0"}
{"Compound": "Clc1ccc(-c2nnc(-c3cccc4ccccc34)o2)cc1Cl", "Assigned Class": "label 0"}
{"Compound": "N#Cc1ccc(C2NN=CC23C(=O)c2ccccc2OC3c2ccccc2)cc1 (stereo unspecified)", "Assigned Class": "label 0"}
{"Compound": "Cc1ccc2c(c1)CC1(C2=O)[C@H](c2ccccc2)C2C(=O)c3ccc(C)cc3C2[C@H]1c1ccccc1 (stereo partly specified)", "Assigned Class": "label 0"}
{"Compound": "Cc1cccc(C)c1/N=N/c1ccc(O)c(CN(C)C)c1", "Assigned Class": "label 0"}
{"Compound": "Nc1nc2c(ncn2C2CCC(CO)O2)c(=O)n1C(=O)c1ccccc1 (stereo unspecified)", "Assigned Class": "label 0"}
{"Compound": "O=C1NC(=O)c2ccccc2/C1=C/c1ccc2c(c1)OCO2", "Assigned Class": "label 0"}
{"Compound": "COc1cccc(/C=C2\\C(=O)N(C(=O)c3ccc(NC(C)=O)cc3)N=C2C)c1", "Assigned Class": "label 0"}
{"Compound": "CCOC(=O)[C@H]1Nc2ccc(C)cc2C2c3ccccc3CC21 (stereo partly specified)", "Assigned Class": "label 0"}
{"Compound": "C/C(=N\\O)C(CN(C)C)C(c1ccccc1)c1c(O)c2ccccc2oc1=O (stereo unspecified)", "Assigned Class": "label 0"}
{"Compound": "Cc1ccc(S(=O)(=O)C2=C([Si](C)(C)C)C3CC2[C@@H]2C4C=CC(CC4)[C@H]32)cc1 (stereo partly specified)", "Assigned Class": "label 0"}
{"Compound": "Cc1ccc(C2(O)CC(c3ccc([N+](=O)[O-])o3)=NN2C(=O)COc2ccccc2Cl)cc1 (stereo unspecified)", "Assigned Class": "label 0"}
{"Compound": "CC(=O)Oc1ccc(-c2nnc(-c3ccc(OC(C)=O)cc3)nn2)cc1", "Assigned Class": "label 0"}
{"Compound": "Cc1c[n+]([O-])c2ccccc2[n+]1[O-]", "Assigned Class": "label 0"}
{"Compound": "C=C1C(=O)OC2CC1C(O)C/C(C)=C/CC/C(C)=C/C(O)CC2C (stereo unspecified)", "Assigned Class": "label 0"}
{"Compound": "N=c1sc(N2CCOCC2)nn1CC(=O)c1ccccc1", "Assigned Class": "label 0"}
{"Compound": "COC(C(=O)C(O)C(C)O)C1CC2C=C3C=C(OC4CC(OC5CC(O)C(OC)C(C)O5)C(OC(C)=O)C(C)O4)C(C)C(O)=C3C(O)=C2C(=O)C1OC1CC(OC2CC(OC3CC(C)(O)C(OC(=O)C(C)C)C(C)O3)C(O)C(C)O2)C(O)C(C)O1 (stereo unspecified)", "Assigned Class": "label 1"}
{"Compound": "C=C1CC2(CC(c3ccccc3C)OC(c3ccccc3C)C2)OC1=O (stereo unspecified)", "Assigned Class": "label 0"}
{"Compound": "C=CC1(c2ccc(Br)cc2)OCCCO1", "Assigned Class": "label 0"}
{"Compound": "O=C1CC(c2ccccc2Cl)C2(C(=O)NC(=O)NC2=O)C(c2ccccc2Cl)C1 (stereo unspecified)", "Assigned Class": "label 0"}
{"Compound": "COc1ccc(-c2c3ccccc3c(-c3ccc(OCCCCCBr)cc3)c3ccccc23)cc1", "Assigned Class": "label 0"}
{"Compound": "Clc1ccc(Cl)c2[s+]snc12", "Assigned Class": "label 0"}
{"Compound": "CCCCc1ccc(Nc2nc3c(ncn3C3OC(COC(C)=O)C(OC(C)=O)C3OC(C)=O)c(=O)[nH]2)cc1 (stereo unspecified)", "Assigned Class": "label 0"}
{"Compound": "Cn1c(O)c(C(=O)NC2CCCCC2)c(=O)n(C)c1=S", "Assigned Class": "label 0"}
{"Compound": "CC(=O)O[C@@H]1[C@@H](O)C2=C3[C@]4(C)[C@@H]1C(C)(C)C(=O)C[C@@H]4[C@]3(O)[C@H](OC(C)=O)[C@@]1(C[C@@H]1C)C2=O", "Assigned Class": "label 0"}
{"Compound": "O=C1C(Cl)C(c2cc(Br)ccc2O)N1n1cnc2ccccc2c1=O (stereo unspecified)", "Assigned Class": "label 0"}
{"Compound": "CC12OC3CC(O1)C1(C=O)C4CCC5(C)C(c6ccc(=O)oc6)CCC5(O)C4CCC1(C3)O2 (stereo unspecified)", "Assigned Class": "label 1"}

Hello, the source for this data is ChEMBL document CHEMBL1201862, in case you need it.
